tested on: SNB-75; experiment: NCI tumour cell line growth inhibition, 48 h
Activity calls are given as the source filed them. No stated cut-off is given here; in the data, active = GI50 up to about 1.1 µM and inactive = higher.
The reply should be one of these categories: yes = active, no = inactive

{"columns": ["Compound", "Label class"],
 "data": [
  ["O=C(N/N=C/c1cc(Cl)cc(Cl)c1O)c1ccncc1", "no"],
  ["COc1ccc(OC)c(CCc2cc(OC)ccc2OC)c1", "no"],
  ["[N-]=[N+]=NC[C@H]1OCO[C@H](CN=[N+]=[N-])[C@H]2OCCOCCOc3ccccc3OCCOCCO[C@@H]21", "no"],
  ["NC(=O)N1N=C2c3ccccc3CC[C@@H]2C1c1ccccc1 (some centres not stated)", "no"],
  ["C[C@@H](Br)[C@@H]1CC[C@H]2c3[nH]c4ccccc4c3CCN2C1", "no"],
  ["O=C1/C(=C/c2ccccc2)CN(C(=O)OCc2ccccc2)C/C1=C\\c1ccccc1", "no"]
]}

Hi team, can someone confirm the assay call for `CCOC(=O)/C(Br)=C1/OC(=O)c2ccccc2-c2ccccc21.CCOC(=O)/C(Br)=C1\OC(=O)c2ccccc2-c2ccccc21` ?
no

Field: outcome | Entry: COc1cccc(C2=NC(C(C)C)CO2)c1 (configuration not stated)
no

Look up the recorded call for `O=C1c2ccccc2-c2nc3ccc(O)cc3n21` in this test.
no

Test call, this compound: `CN(C)c1ccc(C=c2c3ccccc3n3c2c2ccccc2[n+]3C)cc1`
no

What is the recorded call for this compound in the test? CC(=O)N/N=C1\CC(C)(C)C2CCC1C2 (configuration not stated)
no

Tell me the recorded outcome of this test for COC(=O)N/N=C(/c1nc2ccc([N+](=O)[O-])cc2nc1O)C(O)c1ccc(OC)c(OC)c1 (configuration not stated) .
no

Could you check what this test reported for COc1cc([C@@H]2OC[C@@H]3C(c4cc(OC)c5c(c4)OCO5)OC[C@@H]32)cc(OC)c1OC (some centres not stated) ?
no

Dear colleague, could you share the recorded outcome for `Cc1ccc(NC(=O)SCCC(=O)O)cc1` when you have a moment?
no

For O=NN1C(c2ccccc2)C2CCCC(C2=O)C1c1ccccc1 (configuration not stated) , which call appears in the assay record?
no

Recorded test call requested for `NS(=O)(=O)c1ccc(NNc2c3ccccc3nc3c(C(=O)Nc4ccc(S(=O)(=O)Nc5ncccn5)cc4)cccc23)cc1`
no

Just curious, what result did `c1csc(-c2ccsc2-c2ccsc2)c1` get here?
no
